- TEST_TARGET: human TLR 8 protein in HEK-blue hTLR 8 tool cell line (Homo sapiens)
- Construct: expressed in transfected cells; host or cells: HEK293 (HEK-Blue hTLR8)
- Sequence (Q9NR97 27-1041): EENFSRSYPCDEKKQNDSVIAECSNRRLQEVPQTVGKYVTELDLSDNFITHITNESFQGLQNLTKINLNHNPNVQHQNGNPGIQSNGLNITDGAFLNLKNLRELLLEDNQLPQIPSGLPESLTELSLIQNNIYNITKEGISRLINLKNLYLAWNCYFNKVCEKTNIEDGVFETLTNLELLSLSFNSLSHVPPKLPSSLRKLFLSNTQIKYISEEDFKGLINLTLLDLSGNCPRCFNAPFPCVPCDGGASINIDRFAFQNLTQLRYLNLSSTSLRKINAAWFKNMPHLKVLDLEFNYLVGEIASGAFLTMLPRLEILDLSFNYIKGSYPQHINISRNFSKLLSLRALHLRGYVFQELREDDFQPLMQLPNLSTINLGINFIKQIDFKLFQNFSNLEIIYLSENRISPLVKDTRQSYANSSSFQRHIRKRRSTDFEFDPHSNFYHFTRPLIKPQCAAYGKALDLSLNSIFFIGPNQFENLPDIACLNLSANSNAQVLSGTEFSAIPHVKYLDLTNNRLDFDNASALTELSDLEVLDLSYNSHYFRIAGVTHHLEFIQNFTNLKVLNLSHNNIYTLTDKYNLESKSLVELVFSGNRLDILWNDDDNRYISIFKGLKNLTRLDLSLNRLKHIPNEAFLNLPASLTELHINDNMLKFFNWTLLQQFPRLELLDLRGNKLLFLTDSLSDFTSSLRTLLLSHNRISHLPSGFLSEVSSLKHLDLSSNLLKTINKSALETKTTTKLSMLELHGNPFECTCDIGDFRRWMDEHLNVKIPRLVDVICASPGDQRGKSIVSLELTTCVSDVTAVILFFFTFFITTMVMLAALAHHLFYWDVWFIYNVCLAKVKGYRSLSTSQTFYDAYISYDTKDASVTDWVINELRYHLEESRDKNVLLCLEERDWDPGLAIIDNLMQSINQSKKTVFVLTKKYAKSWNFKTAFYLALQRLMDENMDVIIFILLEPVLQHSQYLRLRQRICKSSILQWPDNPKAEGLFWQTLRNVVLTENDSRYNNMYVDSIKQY
- ASSAY_METHOD_TEXT: TLR8 stimulation determined by HEK-Blue Detection (NF-κB/SEAP reporter)
- Type: cell-based
- RUN_CONDITIONS: HEK-Blue hTLR8 cells, 16 h incubation, relative to maximum activation by Resiquimod or motolimod; read-out: EC50 (nmol)
MEASURED_QUANTITY: EC50 (nM)
Report the figure in nM without appending any unit label.

Field: example entries. Status: answers known.
CCC[C@H](C)Oc1nc(N)c2ncc(CC3CCN(CC4CCCN4)CC3)n2n1 (stereo partly shown) ... 558
CCC[C@H](C)Oc1nc(N)c2ncc(CC3CCN(C4CCNC4)CC3)n2n1 (stereo partly shown) ... 387
CCC[C@H](CC)Oc1nc(N)c2ncc(CC3CCNCC3)n2n1 ... 7.5
CCC[C@H](C)Oc1nc(N)c2ncc(CC3CCNCC3C)n2n1 (stereo partly shown) ... 917
CCCC(Cc1ccccc1)Oc1nc(N)c2ncc(CC3CCNCC3)n2n1 (stereo not shown) ... 531
CCC[C@H](C)Oc1nc(N)c2ncc(CC3CCNC(C)C3)n2n1 (stereo partly shown) ... 20
CCC[C@H](C)Oc1nc(N)c2ncc(CC3CCN(CC(C)NC)CC3)n2n1 (single isomer, unassigned) [Compound B58] ... 24
CCC[C@H](C)Oc1nc(N)c2ncc(CC3CCN(CC(C)NC)CC3)n2n1 (stereo partly shown) [Compound B54] ... 22

Item: CCCC(C)Oc1nc(N)c2ncc(CN3CCNCC3)n2n1 (stereo not shown) | EC50: 529

Item: `CCC[C@H](C)Oc1nc(N)c2ncc(C[C@H]3[C@@H]4CNC[C@@H]43)n2n1` | EC50: 766

Item: `CCC(CC)Oc1nc(N)c2ncc(CC3CCNCC3)n2n1` | EC50: 14.7

Item: `CCC[C@@H](C)Oc1nc(N)c2ncc(CC3CCNCC3)n2n1` | EC50: 1290

----------
- TEST_TARGET: human TLR 8 protein in HEK-blue hTLR 8 tool cell line (Homo sapiens, UniProt Q9NR97)
- Construct: expressed in transfected cells; host or cells: HEK293 (HEK-Blue hTLR8)
- Sequence (Q9NR97 27-1041): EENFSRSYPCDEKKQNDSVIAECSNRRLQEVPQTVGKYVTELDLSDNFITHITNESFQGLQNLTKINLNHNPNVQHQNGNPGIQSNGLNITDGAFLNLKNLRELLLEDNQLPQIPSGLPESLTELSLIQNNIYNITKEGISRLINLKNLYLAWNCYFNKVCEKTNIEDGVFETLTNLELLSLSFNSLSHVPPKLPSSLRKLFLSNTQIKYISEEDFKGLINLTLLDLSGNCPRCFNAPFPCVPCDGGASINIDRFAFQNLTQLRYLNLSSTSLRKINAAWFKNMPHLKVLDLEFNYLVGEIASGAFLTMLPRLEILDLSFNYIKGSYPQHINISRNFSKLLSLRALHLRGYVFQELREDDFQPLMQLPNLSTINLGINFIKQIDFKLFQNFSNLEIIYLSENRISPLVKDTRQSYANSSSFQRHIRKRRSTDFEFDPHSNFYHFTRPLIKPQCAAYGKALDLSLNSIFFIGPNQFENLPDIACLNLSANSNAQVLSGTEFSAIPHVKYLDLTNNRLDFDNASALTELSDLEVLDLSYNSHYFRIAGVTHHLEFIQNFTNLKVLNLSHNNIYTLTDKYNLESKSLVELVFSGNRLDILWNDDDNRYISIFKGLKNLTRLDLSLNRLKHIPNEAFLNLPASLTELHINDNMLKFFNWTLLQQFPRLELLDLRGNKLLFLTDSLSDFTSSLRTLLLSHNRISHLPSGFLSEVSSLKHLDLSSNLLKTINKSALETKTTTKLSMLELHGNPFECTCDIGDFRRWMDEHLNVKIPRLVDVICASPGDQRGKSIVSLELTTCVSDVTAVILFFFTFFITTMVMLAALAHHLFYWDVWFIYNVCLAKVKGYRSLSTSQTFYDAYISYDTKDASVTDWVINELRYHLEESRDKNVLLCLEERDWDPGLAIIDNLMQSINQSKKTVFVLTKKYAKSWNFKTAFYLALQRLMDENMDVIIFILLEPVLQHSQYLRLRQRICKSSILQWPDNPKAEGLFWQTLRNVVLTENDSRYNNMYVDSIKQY
- ASSAY_METHOD_TEXT: TLR8 stimulation determined by HEK-Blue Detection (NF-κB/SEAP reporter)
- Assay type: cell-based
- RUN_CONDITIONS: HEK-Blue hTLR8 cells, 16 h incubation, relative to maximum activation by Resiquimod or motolimod; read-out: EC50 (nmol)
The entries below are paired with their reported EC50.
Report the figure in nM without appending any unit label.

Field: example entries. Status: answers known.
CCC[C@H](C)Oc1nc(N)c2ncc(CC3CCC(NC)CC3)n2n1 (stereo partly drawn) ... 103
CCC[C@H](C)Oc1nc(N)c2ncc(CC3CCNC3)n2n1 (stereo partly drawn) ... 99

Could you now consider this next compound?
Item: `CCC[C@H](C)Oc1nc(N)c2ncc(CC3CCN(CCNC)CC3)n2n1` | EC50: 19

----------
- TEST_TARGET: human TLR 8 protein in HEK-blue hTLR 8 tool cell line (Homo sapiens)
- Construct: expressed in transfected cells; host or cells: HEK293 (HEK-Blue hTLR8)
- ASSAY_METHOD_TEXT: TLR8 stimulation determined by HEK-Blue Detection (NF-κB/SEAP reporter)
- Type: cell-based
- RUN_CONDITIONS: HEK-Blue hTLR8 cells, 16 h incubation, relative to maximum activation by Resiquimod or motolimod; read-out: EC50 (nmol)
MEASURED_QUANTITY: EC50 (nM)
Report the figure in nM without appending any unit label.

Field: example entries. Status: answers known.
CCCCOc1nc(N)c2ncc(CCC3CCNCC3)n2n1 ... 346
CCCC(CO)Oc1nc(N)c2ncc(CC3CCNCC3)n2n1 (stereo not shown) ... 225
CCCC(CCO)Oc1nc(N)c2ncc(CC3CCNCC3)n2n1 (stereo not shown) ... 308

Could you now consider this next compound?
Item: CCCC(C)Oc1nc(N)c2ncc(CN3CCN[C@@H](C)C3)n2n1 (stereo partly shown) | EC50: 8490

----------
The entries below are paired with their reported EC50.
- TEST_TARGET: human TLR 8 protein in HEK-blue hTLR 8 tool cell line (Homo sapiens)
- Construct: expressed in transfected cells; host or cells: HEK293 (HEK-Blue hTLR8)
- ASSAY_METHOD_TEXT: TLR8 stimulation determined by HEK-Blue Detection (NF-κB/SEAP reporter)
- Format: cell-based
- RUN_CONDITIONS: HEK-Blue hTLR8 cells, 16 h incubation, relative to maximum activation by Resiquimod or motolimod; read-out: EC50 (nmol)
Report the figure in nM without appending any unit label.

Field: example entries. Status: answers known.
CCCC(C)Oc1nc(N)c2ncc(CN3CCNC[C@@H]3C)n2n1 (stereo partly drawn) ... 3950
CCC[C@H](C)Oc1nc(N)c2ncc(CC3CCCCN3)n2n1 (stereo partly drawn) ... 410
CCCC(C)Oc1nc(N)c2ncc(CC3CCNCC3)n2n1 (stereo not drawn) ... 15

Item: `CCC[C@H](C)Oc1nc(N)c2ncc(CC34CC(N)(C3)C4)n2n1` | EC50: 1010

Item: CCC[C@H](C)Oc1nc(N)c2ncc(CC3CCN(CC(C)NC)CC3)n2n1 (single isomer, unassigned) [Compound B59] | EC50: 21

Item: `CCCC(CCC)Oc1nc(N)c2ncc(CC3CCNCC3)n2n1` | EC50: 84

Item: `CCC[C@H](C)Oc1nc(N)c2ncc(CC3CCN(C4CCNCC4)CC3)n2n1` | EC50: 143

Item: `CCC[C@H](C)Oc1nc(N)c2ncc(CC3CCC4(CC3)CNC4)n2n1` | EC50: 24

Item: `CCCCNc1nc(N)c2ncc(CC3CCNCC3)n2n1` | EC50: 347

Item: CCCC(C)Nc1nc(N)c2ncc(CC3CCNCC3)n2n1 (stereo not drawn) | EC50: 917

Item: `CCC[C@H](C)Oc1nc(N)c2ncc(CC3CCN(C)CC3)n2n1` | EC50: 22

Item: CCC[C@H](C)Oc1nc(N)c2ncc(CC3CCNCC3(C)C)n2n1 (stereo partly drawn) | EC50: 3860
